Let's look at some binders and their measured % internalization.
# target_or_system: EGFRvIII, full length, expressed on cells (human, UniProt P00533 25-1210)
# test_description: cell-based or functional assay
Give the value in % but do not write % after it.

binder="SC-EGFRvIII-XG1-250 (antibody, IgG1, V domains shown, Recombinant IgG1 kappa; also called sc250; SC250) VH: EGQLLESGGGWVQPGESLRLSCAASGFTFSSYAMSWVRQAPGKGLEWVSAISGSGGSTNYADSVKGRFTISRDNSKNTLYLQVNSLRVEDTAVYYCAGSSGWSEYWGQGTLVTVSS VL: DIQMTQSPSSLSASVGDSVTITCRTSQGIRKNLGWYQQKPGKAPKRLIYAASSLQSGVPSRFSGSGSGTEFTLTISRLQPEDFATYYCLQHHSYPLTFGGGTRVEIR" reported_metric="% internalization" recorded_result=16.7
binder="SC-EGFRvIII-XG1-211 (antibody, IgG1, V domains shown, Recombinant IgG1 kappa; also called sc211; SC211) VH: QVQLVESGGGVVQPGRSLRLSCVASGFTLSSYGMHWVRQAPGKGLEWVAVTSYDGSKKDYADSAKGRFTISRDNSKNTLYLQMNSLRAEDTAVYYCVSEGYCSSSSCYKYYYYGMDVWGQGTTVTVSS VL: DIVMTQSPLSLPVTPGEPASISCRSSQSLLYRNGNNYLDWYLQRPGQSPQLLIYLGSNRASGVPDRFSGSGSGTDFTLKISRVEAEDVGVYYCMQALQTPRTFGQGTKVEIK" reported_metric="% internalization" recorded_result=21.6

Q. Consider the binder SC-EGFRvIII-XG2-150 (antibody, IgG1, V domains shown, kappa light chain; also called sc150; SC150) VH: QVQLQQSGPGLVKPSQTLSLTCAISGDSVSSYSSAWNWIRQSPSRGLEWLGRAYHRSRWYYEYAVSVKSRINITPDTSKNQFSLQLNSVTPEDTAVYYCARGSRFDYWGQGTLVTVSS VL: DIVMTQTPLSSPVTLGQPASISCRSSQSLVHRDGNTYLSWLQQRPGQPPRLLIYKISNRFSGVPDRFSGSGAGTDFTLKISRVEAEDVGIYFCMHTTQFPWTFGQGTRVEIK and give its recorded % internalization.
A. 20
